TEST TARGET: Peroxisome proliferator-activated receptor alpha (Homo sapiens)
METHOD: Agonist activity at human PPARalpha in U2OS cells by transactivation assay relative to WY-14643
Assay type: functional, cell-based
VALUE KIND: %max (%)

# COMPOUND, TEST TARGET, %max [%]
records = [
    ("Cc1cccc(Nc2cc(Cl)nc(SCC(=O)O)n2)c1C", "Peroxisome proliferator-activated receptor alpha (Homo sapiens)", 100),
    ("COC(=O)c1cc2ccc(OCCc3nc(-c4ccc(C(C)(C)C)cc4)oc3C)cc2oc1=O", "Peroxisome proliferator-activated receptor alpha (Homo sapiens)", 90),
]

[a] COC(=O)C1Cc2ccc(OCCc3nc(-c4ccc(F)cc4)oc3C)cc2OC1=O (stereo not given)
[b] COC(=O)c1cc2ccc(OCCc3nc(-c4ccc(F)cc4)oc3C)cc2oc1=O
[c] COC(=O)C1Cc2ccc(OCCc3nc(-c4ccc(C(C)(C)C)cc4)oc3C)cc2OC1=O (stereo not given)
Reorder: %max, max to min. List the labels, following the order given in the request.
a, b, c

* * *

TEST TARGET: Peroxisome proliferator-activated receptor alpha (Homo sapiens) (UniProt Q07869)
METHOD: Agonist activity at human PPARalpha in U2OS cells by transactivation assay relative to WY-14643
Format: functional, cell-based
Calls of active or inactive are those of the source. The rule behind the calls is not given here.
VALUE KIND: %max

# COMPOUND, VALUE KIND, READOUT VALUE
data = [
    ("COC(=O)c1cc2ccc(OCCc3nc(-c4cccc(OC)c4)oc3C)cc2oc1=O", "%max", "100%"),
    ("COC(=O)C1Cc2ccc(OCCc3nc(-c4cccc(F)c4)oc3C)cc2OC1=O (stereo unspecified)", "%max", "30%"),
    ("COC(=O)c1cc2ccc(OCCc3nc(-c4cccc(C)c4)oc3C)cc2oc1=O", "%max", "inactive"),
    ("COC(=O)c1cc2ccc(OCCc3nc(-c4cccc(C(F)(F)F)c4)oc3C)cc2oc1=O", "%max", "21%"),
    ("COC(=O)C1Cc2ccc(OCCc3nc(-c4cccc(C)c4)oc3C)cc2OC1=O (stereo unspecified)", "%max", "83%"),
]

Let us examine a further case.
# %max lookup, item COC(=O)c1cc2ccc(OCCc3nc(-c4cccc([N+](=O)[O-])c4)oc3C)cc2oc1=O
inactive

* * *

TEST TARGET: Peroxisome proliferator-activated receptor alpha (Homo sapiens, UniProt Q07869)
METHOD: Agonist activity at human PPARalpha in U2OS cells by transactivation assay
pEC50: −log10 of the molar value.
VALUE KIND: pEC50

Example entries begin here.
# COMPOUND, READOUT VALUE
measured = [
    ("COC(=O)C1Cc2ccc(OCCc3nc(-c4ccc(C)cc4)oc3C)cc2OC1=O (stereo not given)", 6.04),
    ("COC(=O)C1Cc2ccc(OCCc3nc(-c4cccc(OC)c4)oc3C)cc2OC1=O (stereo not given)", 5.92),
    ("COC(=O)c1cc2ccc(OCCc3nc(-c4cccc(OC)c4)oc3C)cc2oc1=O", 5.79),
    ("COC(=O)c1cc2ccc(OCCc3nc(-c4cccc(C(F)(F)F)c4)oc3C)cc2oc1=O", 5.92),
]

[I] COC(=O)C1Cc2ccc(OCCc3nc(-c4cccc(C(F)(F)F)c4)oc3C)cc2OC1=O (stereo not given)
[II] COC(=O)c1cc2ccc(OCCc3nc(-c4cccc(F)c4)oc3C)cc2oc1=O
Determine, for I and II , which has the greater value of pEC50. Write the label of whichever entry you select.
I
(I: 6.77, II: 5.89)

* * *

TEST TARGET: Peroxisome proliferator-activated receptor alpha (Homo sapiens) (UniProt Q07869)
METHOD: Agonist activity at human PPARalpha in U2OS cells by transactivation assay relative to WY-14643
Assay type: functional, cell-based
VALUE KIND: %max (%)

Example entries begin here.
# MOLECULE, %max (%)
data = [
    ("COC(=O)C1Cc2ccc(OCCc3nc(-c4ccc(-c5ccccc5)cc4)oc3C)cc2OC1=O (stereo not given)", 68),
    ("COC(=O)c1cc2ccc(OCCc3nc(-c4ccc(C)cc4)oc3C)cc2oc1=O", 65),
    ("COC(=O)C1Cc2ccc(OCCc3nc(-c4ccc(OC)cc4)oc3C)cc2OC1=O (stereo not given)", 96),
]

[a] COC(=O)c1cc2ccc(OCCc3nc(-c4cccc(F)c4)oc3C)cc2oc1=O
[b] COC(=O)C1Cc2ccc(OCCc3nc(-c4cccc(C(F)(F)F)c4)oc3C)cc2OC1=O (stereo not given)
Determine, for a and b , which has the greater value of %max. Write the label of whichever entry you select.
a
(a: 38%, b: 23%)

[a] COC(=O)C1Cc2ccc(OCCc3nc(-c4ccc(C)cc4)oc3C)cc2OC1=O (stereo not given)
[b] COC(=O)C1Cc2ccc(OCCc3nc(-c4ccccc4)oc3C)cc2OC1=O (stereo not given)
Determine, for a and b , which has the greater value of %max. Write the label of whichever entry you select.
a
(a: 94%, b: 42%)

[a] COC(=O)C1Cc2ccc(OCCc3nc(-c4cccc(OC)c4)oc3C)cc2OC1=O (stereo not given)
[b] COC(=O)c1cc2ccc(OCCc3nc(-c4ccc(-c5ccccc5)cc4)oc3C)cc2oc1=O
Please compare: a and b . Report which one has the smaller %max value. Write the label of whichever entry you select.
a
(a: 23%, b: 116%)

* * *

TEST TARGET: Peroxisome proliferator-activated receptor alpha (Homo sapiens, UniProt Q07869)
Sequence (Q07869 whole entry): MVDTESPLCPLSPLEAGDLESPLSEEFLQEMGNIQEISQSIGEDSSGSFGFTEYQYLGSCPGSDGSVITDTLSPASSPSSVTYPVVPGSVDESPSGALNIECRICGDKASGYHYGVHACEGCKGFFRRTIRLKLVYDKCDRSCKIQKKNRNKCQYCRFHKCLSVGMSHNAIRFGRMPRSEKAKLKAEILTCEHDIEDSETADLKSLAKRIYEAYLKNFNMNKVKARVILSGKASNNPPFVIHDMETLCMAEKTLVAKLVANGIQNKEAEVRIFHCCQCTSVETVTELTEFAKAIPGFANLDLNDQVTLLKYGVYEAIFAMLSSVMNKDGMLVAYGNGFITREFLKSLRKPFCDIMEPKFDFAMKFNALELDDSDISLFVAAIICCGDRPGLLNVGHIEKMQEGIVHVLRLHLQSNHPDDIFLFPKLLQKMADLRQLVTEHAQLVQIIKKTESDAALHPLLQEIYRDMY
METHOD: Agonist activity at human PPARalpha in U2OS cells by transactivation assay
pEC50: −log10 of the molar value.
VALUE KIND: pEC50

Example entries begin here.
# COMPOUND, pEC50
measured = [
    ("COC(=O)c1cc2ccc(OCCc3nc(-c4ccc(C)cc4)oc3C)cc2oc1=O", 9.00),
    ("COC(=O)c1cc2ccc(OCCc3nc(-c4ccc(C(C)(C)C)cc4)oc3C)cc2oc1=O", 5.64),
    ("COC(=O)C1Cc2ccc(OCCc3nc(-c4ccc(OC)cc4)oc3C)cc2OC1=O (stereo not given)", 5.76),
]

[P] COC(=O)C1Cc2ccc(OCCc3nc(-c4cccc(F)c4)oc3C)cc2OC1=O (stereo not given)
[Q] COC(=O)C1Cc2ccc(OCCc3nc(-c4ccc(C(C)(C)C)cc4)oc3C)cc2OC1=O (stereo not given)
Determine, for P and Q , which has the greater value of pEC50. Write the label of whichever entry you select.
Q

* * *

TEST TARGET: Peroxisome proliferator-activated receptor gamma (Homo sapiens)
Sequence (P37231 whole entry): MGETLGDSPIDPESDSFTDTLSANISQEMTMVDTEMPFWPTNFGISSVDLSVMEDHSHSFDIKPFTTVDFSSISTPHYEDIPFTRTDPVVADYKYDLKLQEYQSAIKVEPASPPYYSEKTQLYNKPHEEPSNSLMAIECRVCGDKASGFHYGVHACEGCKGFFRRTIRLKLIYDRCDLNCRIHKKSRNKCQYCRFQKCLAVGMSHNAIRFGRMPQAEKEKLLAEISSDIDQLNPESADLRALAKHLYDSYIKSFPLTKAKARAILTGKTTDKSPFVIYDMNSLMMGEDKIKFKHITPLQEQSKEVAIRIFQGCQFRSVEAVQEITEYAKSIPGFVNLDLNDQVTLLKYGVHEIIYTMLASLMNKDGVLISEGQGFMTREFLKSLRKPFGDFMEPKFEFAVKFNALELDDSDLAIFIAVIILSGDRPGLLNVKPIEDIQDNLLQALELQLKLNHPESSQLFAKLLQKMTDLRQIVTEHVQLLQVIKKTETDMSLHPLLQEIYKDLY
VALUE KIND: EC50 (µM)

# COMPOUND, READOUT VALUE
data = [
    ("COC(=O)C1Cc2ccc(OCCc3nc(-c4cccc(C(F)(F)F)c4)oc3C)cc2OC1=O (stereo not given)", 0.16),
    ("COC(=O)c1cc2ccc(OCCc3nc(-c4cccc([N+](=O)[O-])c4)oc3C)cc2oc1=O", 3.55),
]

[I] COC(=O)c1cc2ccc(OCCc3nc(-c4cccc(C)c4)oc3C)cc2oc1=O
[II] COC(=O)c1cc2ccc(OCCc3nc(-c4cccc(OC)c4)oc3C)cc2oc1=O
[III] COC(=O)C1Cc2ccc(OCCc3nc(-c4cccc(F)c4)oc3C)cc2OC1=O (stereo not given)
I would appreciate it if you could sort these 3 compounds by EC50, starting from the smallest number. List the labels, following the order given in the request.
I, III, II

[P] COC(=O)C1Cc2ccc(OCCc3nc(-c4cccc(C)c4)oc3C)cc2OC1=O (stereo not given)
[Q] COC(=O)c1cc2ccc(OCCc3nc(-c4ccc(C(C)(C)C)cc4)oc3C)cc2oc1=O
[R] COC(=O)c1cc2ccc(OCCc3nc(-c4cccc(F)c4)oc3C)cc2oc1=O
I would appreciate it if you could sort these 3 compounds by EC50, starting from the smallest number. List the labels, following the order given in the request.
P, R, Q
(P: 0.001 µM, R: 0.96 µM, Q: 1.74 µM)
